- Assayed target: human ether-à-go-go-related gene (hERG) potassium channel (human)
- Measurement description: primary screen, population patch clamp on CHO cells stably expressing hERG; higher = less effect of the substance
About 2,200 (0.71%) of roughly 310,000 compounds showed an effect of 50% or more. The effect is printed as a negative number. This is one part of a sample in which strong results are shown more often than they occur.
# hERG current change (%, negative = inhibition) at 1uM listing for each entry below
Just the number in %, nothing appended.

# count of solved cases: 3
{"Molecule": "CCN(CC)CCN1C(=O)c2ccccc2NC1c1ccc(F)cc1 (stereo not shown)", "Value": -30.5}
{"Molecule": "COc1ccccc1/C=c1\\sc2nc(-c3ccco3)nn2c1=O", "Value": 17.5}
{"Molecule": "COCc1cc(CN2CCN(CCc3ccccc3)C(CCO)C2)ccc1OC (stereo not shown)", "Value": -32.3}

In: Reported hERG current change (%, negative = inhibition) at 1uM, molecule "Cc1ccccc1OCCC(=O)OCC(=O)c1c(N)n(CC(C)C)c(=O)n(C)c1=O" : ____
Out: -63.8

In: Reported hERG current change (%, negative = inhibition) at 1uM, molecule CCN(CC)CCN1C(=O)c2ccccc2NC1c1ccc(Br)cc1 (stereo not shown) : ____
Out: -82.8

In: Reported hERG current change (%, negative = inhibition) at 1uM, molecule "C[C@H]1CN=C(N(C)C)N1CCC1CCCCC1" : ____
Out: 13.6

In: Reported hERG current change (%, negative = inhibition) at 1uM, molecule "O=C(CN1CCN(Cc2ccccc2F)CC1)Nc1ccccc1Cl" : ____
Out: 8.26

In: Reported hERG current change (%, negative = inhibition) at 1uM, molecule "COC(=O)c1ccccc1NC(=O)CN1CCC(C)CC1" : ____
Out: -0.0967

In: Reported hERG current change (%, negative = inhibition) at 1uM, molecule "COC(=O)c1ccccc1NC(=O)CN1CCOCC1" : ____
Out: 5.34

In: Reported hERG current change (%, negative = inhibition) at 1uM, molecule CC(C)c1cc(C(=O)N2CCCC(N3CCN(c4ccccc4F)CC3)C2)nc(N)n1 (stereo not shown) : ____
Out: 10.1

In: Reported hERG current change (%, negative = inhibition) at 1uM, molecule COc1cccc(CN2CCCC(C(=O)c3ccc4c(c3)OCO4)C2)c1OC (stereo not shown) : ____
Out: -25.3

In: Reported hERG current change (%, negative = inhibition) at 1uM, molecule Cc1ccc(NCc2nnc(SCCN3CCCCC3)n2CC2CCCO2)cc1Cl (stereo not shown) : ____
Out: -59.1

In: Reported hERG current change (%, negative = inhibition) at 1uM, molecule "COC(=O)c1ccccc1NC(=O)CN1CCN(Cc2ccccc2)CC1" : ____
Out: -69.6

In: Reported hERG current change (%, negative = inhibition) at 1uM, molecule CC(C)Oc1ccc(/C(O)=C2/C(=O)C(=O)N(Cc3cccnc3)C2c2ccco2)cc1 (stereo not shown) : ____
Out: 14.2

====

# hERG current change (%, negative = inhibition) at 1uM listing for each entry below
- Assayed target: human ether-à-go-go-related gene (hERG) potassium channel (human)
- Measurement description: primary screen, population patch clamp on CHO cells stably expressing hERG; higher = less effect of the substance
Out of some 310,000 compounds screened, about 2,200 (0.71%) showed an effect of 50% or more. Effects have a minus sign here. What follows is part of a selection rich in strong results, with near analogues and random picks from the rest.
Just the number in %, nothing appended.

# count of solved cases: 3
{"Compound": "CCN(CC(=O)Nc1ccc(C(=O)OC)cc1)C1CCCCC1", "Reading unit": "%", "Value": 16.3}
{"Compound": "CCOC(=O)c1[nH]ncc1CN1CCCC(C(=O)c2cc(Cl)ccc2OC)C1 (stereo not drawn)", "Reading unit": "%", "Value": -29.9}
{"Compound": "O=C(CCc1nc2ccccc2c(=O)[nH]1)N1CCN(C/C=C/c2ccccc2)CC1", "Reading unit": "%", "Value": -12.3}

In: Enter reported hERG current change (%, negative = inhibition) at 1uM observed with human ether-à-go-go-related gene (hERG) potassium channel (human) for "COc1ccc(/C=C(\NC(=O)c2ccc([N+](=O)[O-])cc2)C(=O)NCCCN2CCOCC2)cc1"
Out: -41

In: Enter reported hERG current change (%, negative = inhibition) at 1uM observed with human ether-à-go-go-related gene (hERG) potassium channel (human) for "O=c1[nH]c(CN2CCN(S(=O)(=O)/C=C/c3ccccc3)CC2)nc2cc(Cl)ccc12"
Out: -21.4

In: Enter reported hERG current change (%, negative = inhibition) at 1uM observed with human ether-à-go-go-related gene (hERG) potassium channel (human) for "CCCS(=O)(=O)N1CCN(C(=O)COc2ccc(OC)cc2)CC1.O=C(O)C(=O)O"
Out: 11.7

In: Enter reported hERG current change (%, negative = inhibition) at 1uM observed with human ether-à-go-go-related gene (hERG) potassium channel (human) for "COc1cc2c(cc1OC)CN(C(=O)COc1ccccc1[N+](=O)[O-])CC2"
Out: 9.5

In: Enter reported hERG current change (%, negative = inhibition) at 1uM observed with human ether-à-go-go-related gene (hERG) potassium channel (human) for "COc1ccc(C(=O)Nc2ccccc2C(=O)Nc2ccc(C(=O)O)cc2)cc1"
Out: 15

====

# hERG current change (%, negative = inhibition) at 1uM listing for each entry below
- Assayed target: human ether-à-go-go-related gene (hERG) potassium channel (human, UniProt Q12809)
- Sequence (Q12809 whole entry, looked up): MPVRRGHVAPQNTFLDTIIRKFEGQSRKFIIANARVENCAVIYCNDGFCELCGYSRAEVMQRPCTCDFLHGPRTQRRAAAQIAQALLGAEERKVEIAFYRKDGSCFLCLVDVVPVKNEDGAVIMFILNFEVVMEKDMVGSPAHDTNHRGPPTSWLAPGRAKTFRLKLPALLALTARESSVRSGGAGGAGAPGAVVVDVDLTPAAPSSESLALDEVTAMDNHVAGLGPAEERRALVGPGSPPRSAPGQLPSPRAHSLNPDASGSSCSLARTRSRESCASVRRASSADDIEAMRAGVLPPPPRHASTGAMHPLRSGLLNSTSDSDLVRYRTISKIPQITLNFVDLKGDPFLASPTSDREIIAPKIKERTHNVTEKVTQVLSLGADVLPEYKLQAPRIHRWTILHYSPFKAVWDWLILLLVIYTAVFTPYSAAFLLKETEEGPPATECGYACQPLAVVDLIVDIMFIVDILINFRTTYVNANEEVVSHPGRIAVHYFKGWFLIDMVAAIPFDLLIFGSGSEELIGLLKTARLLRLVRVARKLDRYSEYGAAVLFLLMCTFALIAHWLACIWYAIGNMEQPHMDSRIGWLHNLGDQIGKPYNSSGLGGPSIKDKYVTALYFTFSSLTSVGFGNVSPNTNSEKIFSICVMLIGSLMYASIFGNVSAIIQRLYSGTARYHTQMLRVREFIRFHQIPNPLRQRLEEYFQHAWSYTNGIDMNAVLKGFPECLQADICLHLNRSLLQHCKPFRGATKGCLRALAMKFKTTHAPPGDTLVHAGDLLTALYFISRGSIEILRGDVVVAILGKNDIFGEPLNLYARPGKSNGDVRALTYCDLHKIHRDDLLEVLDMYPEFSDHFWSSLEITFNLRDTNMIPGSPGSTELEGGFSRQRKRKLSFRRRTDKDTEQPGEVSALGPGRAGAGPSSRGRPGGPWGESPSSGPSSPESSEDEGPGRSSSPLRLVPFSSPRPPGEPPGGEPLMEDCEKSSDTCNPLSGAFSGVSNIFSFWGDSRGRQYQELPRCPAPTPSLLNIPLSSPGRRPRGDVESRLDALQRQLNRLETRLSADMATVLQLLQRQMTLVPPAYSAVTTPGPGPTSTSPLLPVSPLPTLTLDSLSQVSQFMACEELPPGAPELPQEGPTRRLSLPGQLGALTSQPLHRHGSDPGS
- Measurement description: primary screen, population patch clamp on CHO cells stably expressing hERG; higher = less effect of the substance
The campaign covered roughly 310,000 compounds. About 2,200 (0.71%) showed an effect of 50% or more. The effect is printed as a negative number. Shown is part of a subset that was picked to be rich in strong results.
Just the number in %, nothing appended.

# count of solved cases: 2
{"Molecule": "Cc1cccc(N(CC(O)CN2CCOCC2)S(=O)(=O)c2ccccc2)c1 (stereo not drawn)", "Reading unit": "%", "Value": 11.2}
{"Molecule": "S=C1N(c2ccccc2)C(c2ccccc2)N2CCCN12 (stereo not drawn)", "Reading unit": "%", "Value": 6.76}

// next entry
In: Reported hERG current change (%, negative = inhibition) at 1uM, molecule Cc1cccc(N(CC(O)CN(C)C)S(=O)(=O)c2ccccc2)c1.Cl (stereo not drawn) : ____
Out: -50.1

====

- Assayed target: human ether-à-go-go-related gene (hERG) potassium channel (human)
- Measurement description: primary screen, population patch clamp on CHO cells stably expressing hERG; higher = less effect of the substance
In all, about 310,000 compounds went through this assay and about 2,200 (0.71%) showed an effect of 50% or more. The effect is printed as a negative number. The full list was thinned out, with strong results kept by preference.
Property measured: hERG current change (%, negative = inhibition) at 1uM (%)
Just the number in %, nothing appended.

{"Compound": "COc1ccccc1NC(=S)NC(=O)/C=C/c1cccs1", "Value": 12.3}
{"Compound": "Cc1ccc(CN=C(N)Nc2nc(C)cc(C)n2)cc1.Cl", "Value": -19.5}
{"Compound": "Cc1ccc(=O)n(C(C(=O)NCc2ccco2)C(=O)c2ccc(F)cc2)c1 (stereo not drawn)", "Value": 6.1}
{"Compound": "Cc1cc(N2CCN(S(=O)(=O)c3ccc(C)c(C)c3)CC2)c2ccccc2n1", "Value": -18.3}
{"Compound": "CCOC(=O)C(NC(C)=O)(Nc1ccc(S(=O)(=O)Nc2ncccn2)cc1)C(F)(F)F (stereo not drawn)", "Value": 18.1}

In: Enter reported hERG current change (%, negative = inhibition) at 1uM observed with human ether-à-go-go-related gene (hERG) potassium channel (human) for "CC(=O)Nc1ccc(S(=O)(=O)N2CCN(c3nc(C)cc(C)n3)CC2)cc1"
Out: 14.9

In: Enter reported hERG current change (%, negative = inhibition) at 1uM observed with human ether-à-go-go-related gene (hERG) potassium channel (human) for COc1ccc(CN2C3CCCC2CC(NC(=O)c2cccc(F)c2)C3)cc1 (stereo not drawn)
Out: -85.9

====

- Assayed target: human ether-à-go-go-related gene (hERG) potassium channel (human)
- Measurement description: primary screen, population patch clamp on CHO cells stably expressing hERG; higher = less effect of the substance
Screen size: about 310,000 compounds; about 2,200 (0.71%) showed an effect of 50% or more. The effect is printed as a negative number. Many of the other results were omitted from the sample, so strong results are more common in it than they were.
Property measured: hERG current change (%, negative = inhibition) at 1uM (%)
Just the number in %, nothing appended.

In: Reported hERG current change (%, negative = inhibition) at 1uM, molecule "Cc1ccnc(SCc2ccc([N+](=O)[O-])cc2)n1" : ____
Out: -1.04

In: Reported hERG current change (%, negative = inhibition) at 1uM, molecule "Cn1nc(C(F)(F)F)cc1Oc1ncc(C(F)(F)F)cc1Cl" : ____
Out: 12.5

In: Reported hERG current change (%, negative = inhibition) at 1uM, molecule "CSc1ccc(CNc2ncc(-c3cccc([N+](=O)[O-])c3)n2C)cc1.O=C(O)C(=O)O" : ____
Out: -26.5

In: Reported hERG current change (%, negative = inhibition) at 1uM, molecule O=C(CC1NCCc2ccccc21)Nc1ccccc1 (stereo not shown) : ____
Out: 4.29
